Recorded TGI by entry
test system: NCI-H23 lung; assay: NCI tumour cell line growth inhibition, 48 h
Quick note: give the figure in µM, leave out the unit.

Data request: What measured TGI is associated with `CCN(CC)CCNC(=O)c1ccccc1Nc1c(Cl)cccc1Cl` on NCI-H23 lung?
Data returned: 33.3

Read the next record carefully.
Data request: State its TGI on NCI-H23 lung: `COc1cccc(NC(=O)c2ccc(C(F)(F)F)nc2Nc2ccc(Cl)cc2C)c1`
Data returned: 20

* * *

system: COLO 205 colon; assay: NCI tumour cell line growth inhibition, 48 h
Measured TGI values are reported for all entries that follow.

Data request: Name the recorded TGI for CC1(Br)C(=O)NC(=O)N([C@H]2C[C@H](O)[C@@H](CO)O2)C1N=[N+]=[N-] (some centres undefined) .
Data returned: > 100 µM

Data request: For `CCOC(=O)c1c(N2CCOCC2)[nH]c(=O)c(C(c2ccc(N(C)C)cc2)c2c(O)c(C(=O)OCC)c(N3CCOCC3)[nH]c2=O)c1O` , what is its reported TGI?
Data returned: > 100 µM

Data request: Recorded TGI for CC(=O)OC1CC(C)c2c1ncnc2N1CCN(C(=O)OC(C)(C)C)CC1 (centres undefined) , please?
Data returned: > 100 µM

Data request: Would you kindly share the measured TGI for `CC(C)(C)OC(=O)N(CCCn1c2c(c3ccccc3c1=O)C(=O)c1ccccc1-2)CCN(CCCn1c2c(c3ccccc3c1=O)C(=O)c1ccccc1-2)C(=O)OC(C)(C)C` ?
Data returned: > 50 µM

Data request: For `COc1ccc(C(F)(F)F)cc1NC(=O)O/N=C(/Cl)C(C)C` , what is its reported TGI?
Data returned: 4.1 µM

Data request: For the compound `COC(=O)/C1=C/C2CC(/C=C(/c3ccccc3)C(=O)O1)C2` , what TGI is on record?
Data returned: 41.7 µM

Data request: Please report the recorded TGI for CCC1(c2ccncc2)CCC(=O)NC1=O (centres undefined) .
Data returned: > 100 µM

Data request: If you can, please state the reported TGI value of `COc1cc(C)c(N(C)C(=O)CN(C)C)cc1Nc1nc(Nc2cccc(F)c2C(N)=O)c2cc[nH]c2n1` .
Data returned: > 25 µM

* * *

Each record here notes measured TGI.
test system: UO-31 renal; assay: NCI tumour cell line growth inhibition, 48 h
Value expressed in µM; do not type the unit.

Known TGI results, listed for orientation:
Data request: Consider the compound shown here: `CN([N-]C(=O)CC(=O)[N-]N(C)C(=S)c1ccccc1)C(=S)c1ccccc1.[Cu+2]` What is its recorded TGI?
Data returned: 0.231

Data request: Requested read-out: TGI. Entry: `CC(C)NCCCNC1=C(Cl)C(=O)c2ccccc2C1=O`
Data returned: 29.2

Continuing:
Data request: # TGI lookup, item `O=c1c2ccccc2c(C=NCCNCCO)c2oc3ccccc3n12`
Data returned: 22.5

* * *

system: HOP-92 NSCLC; test: NCI tumour cell line growth inhibition, 48 h
Below is a list of entries, each paired with its recorded TGI value.

Worked cases, answers included:
Data request: Give its TGI value. Item: CC1(C)C2CCC1(C)C(NC(=O)CCN1CCOCC1)C2 (configuration not stated)
Data returned: > 100 µM

Data request: // query TGI value for entry Cc1ccc(S(=O)(=O)NC(C)C(=O)O)cc1 (configuration not stated)
Data returned: > 100 µM

Data request: I would be grateful if you could share the reported TGI for `CC(C)(C)c1cc2c(OP(c3ccccc3)c3ccccc3)c(c1)Cc1cc(C(C)(C)C)cc(c1OP(c1ccccc1)c1ccccc1)Cc1cc(C(C)(C)C)cc(c1OP(c1ccccc1)c1ccccc1)Cc1cc(C(C)(C)C)cc(c1OP(c1ccccc1)c1ccccc1)C2` .
Data returned: > 50 µM

Data request: Which TGI reading was recorded for the compound `COc1ccccc1NC(=O)N/C(N)=N/c1nc2ccccc2s1` ?
Data returned: > 100 µM

Further cases:
Data request: Quick one: TGI of CC(=O)C1CC2(c3ccccc3)C(=O)c3ccccc3N2O1 (configuration not stated) ?
Data returned: > 100 µM

Data request: // returns reported TGI for input `CN1CCN(c2ccc3nc(-c4ccc5nc(-c6ccc(C(F)(F)F)cc6)[nH]c5c4)[nH]c3c2)CC1`
Data returned: 14.7 µM

Data request: So what does the record say about TGI for `S=c1scc(-c2ccc(Cl)cc2)n1OC1CCCC1` ?
Data returned: > 100 µM
